- MEASURED_ON: Variant PPO Enzyme L397Q (Amaranthus PPO2) (Amaranthus tuberculatus, UniProt Q0NZW9, L397Q)
- Sequence (Q0NZW9 1-534 L397Q): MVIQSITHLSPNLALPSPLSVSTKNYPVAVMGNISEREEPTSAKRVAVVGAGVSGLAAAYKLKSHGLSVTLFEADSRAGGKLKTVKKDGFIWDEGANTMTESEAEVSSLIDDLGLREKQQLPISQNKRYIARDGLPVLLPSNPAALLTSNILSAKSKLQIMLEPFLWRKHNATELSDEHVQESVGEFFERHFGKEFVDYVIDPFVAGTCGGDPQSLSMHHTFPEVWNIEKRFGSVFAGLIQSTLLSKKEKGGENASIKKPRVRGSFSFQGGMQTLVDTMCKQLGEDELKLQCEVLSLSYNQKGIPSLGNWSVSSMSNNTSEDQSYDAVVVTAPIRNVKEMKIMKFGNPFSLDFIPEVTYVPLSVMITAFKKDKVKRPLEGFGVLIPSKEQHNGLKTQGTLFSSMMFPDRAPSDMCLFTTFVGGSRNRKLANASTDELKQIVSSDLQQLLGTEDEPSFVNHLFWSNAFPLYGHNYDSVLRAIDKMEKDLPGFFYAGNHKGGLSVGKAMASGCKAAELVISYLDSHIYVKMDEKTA
pIC50: −log10 of the molar value.

COMPOUND_SMILES: CCOC(=O)COc1ncccc1Oc1cc(-n2c(=O)cc(C(F)(F)F)n(C)c2=O)c(F)cc1Cl
pIC50: 8.62

----------
- MEASURED_ON: Variant PPO Enzyme L397Q, F420M (Amaranthus PPO2) (Amaranthus tuberculatus, UniProt Q0NZW9, F420M/L397Q)
- Sequence (Q0NZW9 1-534 F420M/L397Q): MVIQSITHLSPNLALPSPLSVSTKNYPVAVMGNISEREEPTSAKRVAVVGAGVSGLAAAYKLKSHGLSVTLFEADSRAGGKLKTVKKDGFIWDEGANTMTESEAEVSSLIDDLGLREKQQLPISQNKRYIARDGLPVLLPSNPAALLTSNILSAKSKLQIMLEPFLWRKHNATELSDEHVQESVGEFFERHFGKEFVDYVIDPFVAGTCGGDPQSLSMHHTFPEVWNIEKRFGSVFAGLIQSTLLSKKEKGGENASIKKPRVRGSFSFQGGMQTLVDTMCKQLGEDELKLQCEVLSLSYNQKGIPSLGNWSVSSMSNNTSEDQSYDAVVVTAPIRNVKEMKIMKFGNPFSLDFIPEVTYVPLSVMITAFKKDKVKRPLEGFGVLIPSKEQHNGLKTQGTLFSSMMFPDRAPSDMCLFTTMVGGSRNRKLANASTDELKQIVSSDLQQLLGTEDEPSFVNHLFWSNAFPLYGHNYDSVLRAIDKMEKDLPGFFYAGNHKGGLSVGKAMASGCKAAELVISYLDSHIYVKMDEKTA
MEASURED_METRIC: IC50 (µM)

COMPOUND_SMILES: CCOC(=O)COc1ncccc1Oc1cc(-n2c(=O)cc(C(F)(F)F)n(C)c2=O)c(F)cc1Cl
OBS_VALUE: 0.429
